biological target: hUP1 (Homo sapiens, UniProt Q16831); assay: isothermal titration microcalorimetry (ITC), free enzyme; format: binding
Sequence (Q16831 whole entry): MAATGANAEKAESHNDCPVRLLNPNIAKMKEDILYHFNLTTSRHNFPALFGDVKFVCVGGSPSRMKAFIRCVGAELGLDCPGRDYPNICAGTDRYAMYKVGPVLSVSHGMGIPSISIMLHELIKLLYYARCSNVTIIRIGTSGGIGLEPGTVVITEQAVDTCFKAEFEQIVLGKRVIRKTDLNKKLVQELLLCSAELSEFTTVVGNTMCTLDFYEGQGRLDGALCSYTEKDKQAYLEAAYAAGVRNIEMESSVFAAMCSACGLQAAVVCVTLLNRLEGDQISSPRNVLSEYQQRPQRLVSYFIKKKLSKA
Recorded −TΔS (kcal/mol/deg) for the following compounds
Numbers only; they are read as kcal/mol/deg.

Completed entries (count: 5):
>>> measured("Cc1c(CN(C)C)c(O)[nH]c(=O)c1C#N")
0.8
>>> measured("Cc1c(CNCCO)c(O)[nH]c(=O)c1C#N")
14
>>> measured("Cc1c(CNC(CO)CO)c(O)[nH]c(=O)c1C#N")
16
>>> measured("Cc1c(CNCC(O)CO)c(O)[nH]c(=O)c1C#N (stereo not shown)")
15
>>> measured("N#Cc1ccc(O)[nH]c1=O")
1.7

Lab note: measured −TΔS (kcal/mol/deg) of `Cc1cc(O)[nH]c(=O)c1C#N` was 1.7

Lab note: measured −TΔS (kcal/mol/deg) of O=c1[nH]c(=O)n(COCCO)cc1Cc1ccccc1 [BAU, benzil acyclo uridine, reference compound] was 1.5

---

biological target: hUP1-Pi (Homo sapiens, UniProt Q16831); assay: isothermal titration microcalorimetry (ITC), enzyme complexed with substrate Pi; assay type: binding
Sequence (Q16831 whole entry): as above
Recorded ΔH° for the following molecules
Numbers only; they are read as kcal/mol.

Completed entries (count: 5):
>>> measured("Cc1c(CNCC(O)CO)c(O)[nH]c(=O)c1C#N (stereo not drawn)")
-19
>>> measured("Cc1c(CNCCO)c(O)[nH]c(=O)c1C#N")
-16
>>> measured("O=c1[nH]c(=O)n(COCCO)cc1Cc1ccccc1 [BAU, benzil acyclo uridine, reference compound]")
-13
>>> measured("Cc1c(CNC(CO)CO)c(O)[nH]c(=O)c1C#N")
-14
>>> measured("Cc1cc(O)[nH]c(=O)c1C#N")
-19

Let us move to another entry and its ΔH°.
Lab note: measured ΔH° of `Cc1c(CN(C)C)c(O)[nH]c(=O)c1C#N` was -12

---

Recorded ΔG° for the following compounds
target: hUP1 (Homo sapiens); assay: isothermal titration microcalorimetry (ITC), free enzyme; format: binding
Field note: include the unit after the figure.

Completed entries (count: 2):
>>> measured("O=c1[nH]c(=O)n(COCCO)cc1Cc1ccccc1 [BAU, benzil acyclo uridine, reference compound]")
"-8.4 ± 1.0 kcal/mol"
>>> measured("N#Cc1ccc(O)[nH]c1=O")
"-7.8 ± 1.5 kcal/mol"

Lab note: measured ΔG° of `Cc1c(CNCCO)c(O)[nH]c(=O)c1C#N` was -8.0 ± 0.9 kcal/mol

Lab note: measured ΔG° of `Cc1c(CNC(CO)CO)c(O)[nH]c(=O)c1C#N` was -7.4 ± 1.0 kcal/mol

Lab note: measured ΔG° of `Cc1cc(O)[nH]c(=O)c1C#N` was -6.9 ± 1.0 kcal/mol

Lab note: measured ΔG° of Cc1c(CNCC(O)CO)c(O)[nH]c(=O)c1C#N (stereo not shown) was -6.7 ± 0.9 kcal/mol

Lab note: measured ΔG° of `Cc1c(CN(C)C)c(O)[nH]c(=O)c1C#N` was -7.6 ± 1.1 kcal/mol

---

target: hUP1-R1P (Homo sapiens, UniProt Q16831); experiment: isothermal titration microcalorimetry (ITC), enzyme complexed with product ribose-1-phosphate; format: binding; details: hUP1-R1P 150 μM
Sequence (Q16831 whole entry): as above
Recorded ΔH° for the following molecules
Numbers only; they are read as kcal/mol.

Completed entries (count: 3):
>>> measured("Cc1c(CNC(CO)CO)c(O)[nH]c(=O)c1C#N")
-10
>>> measured("Cc1c(CNCC(O)CO)c(O)[nH]c(=O)c1C#N (centres unmarked)")
-18
>>> measured("Cc1c(CNCCO)c(O)[nH]c(=O)c1C#N")
-30

Let us move to another entry and its ΔH°.
Lab note: measured ΔH° of O=c1[nH]c(=O)n(COCCO)cc1Cc1ccccc1 [BAU, benzil acyclo uridine, reference compound] was -20

---

molecular target: Human Phosphorylase Uridine 1 (hUP1) (Homo sapiens); assay: Ki and inhibition type from substrate saturation curves, double-reciprocal analysis; format: biochemical; conditions: substrate Pi
Sequence (Q16831 whole entry): as above
OBSERVABLE: Inhibiting type for phosphate

Completed entries (count: 5):
>>> measured("Cc1c(CN(C)C)c(O)[nH]c(=O)c1C#N")
"Uncompetitive"
>>> measured("Cc1c(CNCC(O)CO)c(O)[nH]c(=O)c1C#N (centres unmarked)")
"Uncompetitive"
>>> measured("Cc1cc(O)[nH]c(=O)c1C#N [Compound c3]")
"Uncompetitive"
>>> measured("Cc1c(CNCCO)c(O)[nH]c(=O)c1C#N")
"Uncompetitive"
>>> measured("O=c1[nH]c(=O)n(COCCO)cc1Cc1ccccc1 [BAU, benzil acyclo uridine, reference compound]")
"Not competitive"

Lab note: measured Inhibiting type for phosphate of `Cc1c(CNC(CO)CO)c(O)[nH]c(=O)c1C#N` was Uncompetitive

Lab note: measured Inhibiting type for phosphate of Cc1cc(O)[nH]c(=O)c1C#N [c13] was Not competitive

---

molecular target: hUP1-R1P (Homo sapiens, UniProt Q16831); experiment: isothermal titration microcalorimetry (ITC), enzyme complexed with product ribose-1-phosphate; format: binding; settings: hUP1-R1P 150 μM
OBSERVABLE: log10 Kd (log10 of the value in µM)
The base-10 logarithm of Kd, taken with Kd in µM, is what appears here.

Completed entries (count: 5):
>>> measured("O=c1[nH]c(=O)n(COCCO)cc1Cc1ccccc1 [BAU, benzil acyclo uridine, reference compound]")
0.82
>>> measured("Cc1c(CN(C)C)c(O)[nH]c(=O)c1C#N [c1]")
1.00
>>> measured("N#Cc1ccc(O)[nH]c1=O [c12]")
-0.90
>>> measured("Cc1c(CNC(CO)CO)c(O)[nH]c(=O)c1C#N [c6]")
0.85
>>> measured("Cc1cc(O)[nH]c(=O)c1C#N [Compound c3]")
-1.40

Lab note: measured log10 Kd of Cc1c(CNCC(O)CO)c(O)[nH]c(=O)c1C#N (centres unmarked) [c4] was 0.97

Lab note: measured log10 Kd of Cc1c(CNCCO)c(O)[nH]c(=O)c1C#N [c2] was 0.58

Lab note: measured log10 Kd of Cc1cc(O)[nH]c(=O)c1C#N [c13] was 0.11

---

molecular target: Human Phosphorylase Uridine 1 (hUP1) (Homo sapiens); assay: Ki and inhibition type from substrate saturation curves, double-reciprocal analysis; type: biochemical; conditions: substrate uridine
OBSERVABLE: Inhibition type for uridine

Completed entries (count: 7):
>>> measured("Cc1c(CN(C)C)c(O)[nH]c(=O)c1C#N [c1]")
"Competitive"
>>> measured("Cc1cc(O)[nH]c(=O)c1C#N [c13]")
"Not competitive"
>>> measured("O=c1[nH]c(=O)n(COCCO)cc1Cc1ccccc1 [BAU, benzil acyclo uridine, reference compound]")
"Competitive"
>>> measured("Cc1c(CNCCO)c(O)[nH]c(=O)c1C#N [c2]")
"Competitive"
>>> measured("Cc1cc(O)[nH]c(=O)c1C#N [Compound c3]")
"Not competitive"
>>> measured("Cc1c(CNC(CO)CO)c(O)[nH]c(=O)c1C#N [c6]")
"Competitive"
>>> measured("Cc1c(CNCC(O)CO)c(O)[nH]c(=O)c1C#N (centres unmarked) [c4]")
"Competitive"

Let us move to another entry and its Inhibition type for uridine.
Lab note: measured Inhibition type for uridine of N#Cc1ccc(O)[nH]c1=O [c12] was Not competitive

---

target: hUP1-R1P (Homo sapiens); experiment: isothermal titration microcalorimetry (ITC), enzyme complexed with product ribose-1-phosphate; assay type: binding; settings: hUP1-R1P 50 μM
yes (1) means recorded ΔG° is -8 kcal/mol or above; no (0) means it is below -8 kcal/mol.

>>> label("Cc1c(CN(C)C)c(O)[nH]c(=O)c1C#N [c1]")
"yes (1)"

Inquiry: Is it the case that Cc1c(CNCC(O)CO)c(O)[nH]c(=O)c1C#N (centres unmarked) [c4] has ΔG° reaching or exceeding -8 kcal/mol?
Reply text: yes (1)

Inquiry: Is it the case that Cc1cc(O)[nH]c(=O)c1C#N [Compound c3] has ΔG° reaching or exceeding -8 kcal/mol?
Reply text: no (0)

Inquiry: Is it the case that N#Cc1ccc(O)[nH]c1=O [c12] has ΔG° reaching or exceeding -8 kcal/mol?
Reply text: no (0)

Inquiry: Is it the case that Cc1c(CNC(CO)CO)c(O)[nH]c(=O)c1C#N [c6] has ΔG° reaching or exceeding -8 kcal/mol?
Reply text: yes (1)

---

biological target: hUP1-R1P (Homo sapiens, UniProt Q16831); experiment: isothermal titration microcalorimetry (ITC), enzyme complexed with product ribose-1-phosphate; type: binding; details: hUP1-R1P 50 μM
Recorded Kd for the following molecules
Numbers only; they are read as nM.

>>> measured("O=c1[nH]c(=O)n(COCCO)cc1Cc1ccccc1 [BAU, benzil acyclo uridine, reference compound]")
1200
>>> measured("N#Cc1ccc(O)[nH]c1=O")
108
>>> measured("Cc1cc(O)[nH]c(=O)c1C#N [c13]")
1300
>>> measured("Cc1c(CNCC(O)CO)c(O)[nH]c(=O)c1C#N (centres unmarked)")
4600
>>> measured("Cc1cc(O)[nH]c(=O)c1C#N [Compound c3]")
1400
>>> measured("Cc1c(CN(C)C)c(O)[nH]c(=O)c1C#N")
7400
>>> measured("Cc1c(CNCCO)c(O)[nH]c(=O)c1C#N")
2300

Lab note: measured Kd of `Cc1c(CNC(CO)CO)c(O)[nH]c(=O)c1C#N` was 7000

src = patent US9700547B2
